testDescription: Metabolic stability in rat liver microsomes
Assay type: in vitro ADME
conditionDetails: rat, liver microsomes, pH 7.4; after 15 min of biotransformation; read-out: % remaining of the parent compound RLMs

compound: Cc1ccc2nc(-c3ccc(F)cc3)c(CC(=O)N3CC(C)NC(C)C3)n2c1 (stereo not shown)
remaining at 0.25 h, %: 70

###

Tested on: P-glycoprotein (P-gp, MDR1)
testDescription: A–B and B–A permeability assay in MDR1-MDCKII cell line
conditionDetails: dog, MDCK-MDR1, pH 7.4

molecule: Cc1ccc2nc(-c3ccc(F)cc3)c(CC(=O)N3CC(C)NC(C)C3)n2c1 (stereo not shown) [Compound 6]
Papp A→B at 10 μM: 14.5 ×10⁻⁶ cm/s
